From: ChEMBL document CHEMBL6177968

Recorded IC50 values for a group of compounds are listed next.
Assay: Cytotoxicity in mouse NIH3T3 cells
Assay type: toxicity, cell-based

Compound Structure String	IC50
Nc1cc(F)c(S(=O)(=O)N[C@H]2CNC2=O)cc1C(=O)Nc1ccc(F)c(C(F)F)c1	> 100 µM

Next item in the queue.
Req: I am curious: what IC50 value has been reported for `Nc1cc(F)c(S(=O)(=O)NC2COC2)cc1C(=O)Nc1ccc(F)c(C(F)F)c1` ?
Resp: > 100 µM

* * *

Assay: Metabolic stability in rat liver microsomes assessed as compound remaining measured after 30 mins
Type: ADME, Microsome
Conditions: read-out: Stability
Measurement Name: remaining at 0.5 h (%)
Give just the numeric value; % need not be written.

Compound	remaining at 0.5 h [%]
CC(C)(NS(=O)(=O)c1cc(C(=O)Nc2ccc(F)c(C(F)F)c2)c(N)cc1F)C1COC1	5.63
Nc1cc(F)c(S(=O)(=O)NC2COC2)cc1C(=O)Nc1ccc(F)c(C(F)F)c1	45.4
CC1(CNS(=O)(=O)c2cc(C(=O)Nc3ccc(F)c(C(F)F)c3)c(N)cc2F)COC1	8.38
Nc1cc(F)c(S(=O)(=O)NCC2COC2)cc1C(=O)Nc1ccc(F)c(C(F)F)c1	26
Nc1cc(F)c(S(=O)(=O)N[C@H]2CNC2=O)cc1C(=O)Nc1ccc(F)c(C(F)F)c1	51

Next item in the queue.
Req: I am curious: what remaining at 0.5 h value has been reported for Nc1cc(F)c(S(=O)(=O)N2CC3COCC3C2)cc1C(=O)Nc1ccc(F)c(C(F)F)c1 (stereo unspecified) ?
Resp: 0.79
